Biological target: T1, Human N-terminally SNAP-tagged GIPR (human, UniProt P48546 22-466, SNAP tag labeled with Tag-Lite SNAP-Lumi4-Tb)
T1 sequence (looked up): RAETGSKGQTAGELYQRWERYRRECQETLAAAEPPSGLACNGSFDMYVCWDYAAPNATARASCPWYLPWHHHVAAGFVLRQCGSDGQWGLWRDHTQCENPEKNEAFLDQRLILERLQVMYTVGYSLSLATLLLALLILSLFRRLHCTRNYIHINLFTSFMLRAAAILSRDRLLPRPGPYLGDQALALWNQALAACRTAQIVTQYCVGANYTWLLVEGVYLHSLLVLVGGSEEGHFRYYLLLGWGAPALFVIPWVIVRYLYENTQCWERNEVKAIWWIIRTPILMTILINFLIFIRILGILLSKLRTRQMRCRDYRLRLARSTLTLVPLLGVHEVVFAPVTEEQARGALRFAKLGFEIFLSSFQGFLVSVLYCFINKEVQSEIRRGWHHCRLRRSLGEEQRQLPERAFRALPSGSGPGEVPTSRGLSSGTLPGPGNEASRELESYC
Assay: cell-based or functional assay
*1 amine or outer side, *2 acyl side, *3 side chain or, on linkers, in order; H or OH if unused. Where no end group is shown, it is not given here. Side-chain parts run from the residue outwards. [ ]: non-standard residue; d: D form. The star is where a group is joined. C18 diacid = O=C(O)CCCCCCCCCCCCCCCCC(=O)*; γGlu = O=C(O)[C@H](CCC(=O)[*:2])N[*:1]; AEEA = NCCOCCOCC(=O)O; Aib = CC(C)(N)C(=O)O
We begin with a simple list: items and their reported Absolute hGIPR internalization (AUC).
PARAMETER_MEASURED: Absolute hGIPR internalization (AUC)

{"BINDER": "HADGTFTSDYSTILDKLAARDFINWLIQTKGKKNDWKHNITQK([AEEA-AEEA-γGlu-C18 diacid])-OH [Compound 26]", "UNITS_SYMBOL": "AUC", "REPORTED_RESULT": 16.4}
{"BINDER": "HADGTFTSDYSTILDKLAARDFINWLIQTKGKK([AEEA-AEEA-γGlu-C18 diacid])NDWKHNITQ-OH [Compound 24]", "UNITS_SYMBOL": "AUC", "REPORTED_RESULT": 15}
{"BINDER": "HADGTFTSDYST[Aib]LDK([AEEA-AEEA-γGlu-C18 diacid])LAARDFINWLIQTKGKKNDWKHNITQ-OH [Compound 22]", "UNITS_SYMBOL": "AUC", "REPORTED_RESULT": 7}
{"BINDER": "H[Aib]DGTFISDYSTILDALAARDFINWLIQTKITK([AEEA-AEEA-γGlu-C18 diacid])-OH [Compound 28]", "UNITS_SYMBOL": "AUC", "REPORTED_RESULT": 21.7}
{"BINDER": "HADGTFTSDYST[Aib]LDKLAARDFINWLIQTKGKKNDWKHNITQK([AEEA-AEEA-γGlu-C18 diacid])-OH [Compound 27]", "UNITS_SYMBOL": "AUC", "REPORTED_RESULT": 9}
